molecular target: cKIT (Homo sapiens); assay: Off-chip mobility-shift kinase assay (Caliper LABCHIP), C-kit; conditions: concentration 3.0E−08
Sequence (P10721 26-976): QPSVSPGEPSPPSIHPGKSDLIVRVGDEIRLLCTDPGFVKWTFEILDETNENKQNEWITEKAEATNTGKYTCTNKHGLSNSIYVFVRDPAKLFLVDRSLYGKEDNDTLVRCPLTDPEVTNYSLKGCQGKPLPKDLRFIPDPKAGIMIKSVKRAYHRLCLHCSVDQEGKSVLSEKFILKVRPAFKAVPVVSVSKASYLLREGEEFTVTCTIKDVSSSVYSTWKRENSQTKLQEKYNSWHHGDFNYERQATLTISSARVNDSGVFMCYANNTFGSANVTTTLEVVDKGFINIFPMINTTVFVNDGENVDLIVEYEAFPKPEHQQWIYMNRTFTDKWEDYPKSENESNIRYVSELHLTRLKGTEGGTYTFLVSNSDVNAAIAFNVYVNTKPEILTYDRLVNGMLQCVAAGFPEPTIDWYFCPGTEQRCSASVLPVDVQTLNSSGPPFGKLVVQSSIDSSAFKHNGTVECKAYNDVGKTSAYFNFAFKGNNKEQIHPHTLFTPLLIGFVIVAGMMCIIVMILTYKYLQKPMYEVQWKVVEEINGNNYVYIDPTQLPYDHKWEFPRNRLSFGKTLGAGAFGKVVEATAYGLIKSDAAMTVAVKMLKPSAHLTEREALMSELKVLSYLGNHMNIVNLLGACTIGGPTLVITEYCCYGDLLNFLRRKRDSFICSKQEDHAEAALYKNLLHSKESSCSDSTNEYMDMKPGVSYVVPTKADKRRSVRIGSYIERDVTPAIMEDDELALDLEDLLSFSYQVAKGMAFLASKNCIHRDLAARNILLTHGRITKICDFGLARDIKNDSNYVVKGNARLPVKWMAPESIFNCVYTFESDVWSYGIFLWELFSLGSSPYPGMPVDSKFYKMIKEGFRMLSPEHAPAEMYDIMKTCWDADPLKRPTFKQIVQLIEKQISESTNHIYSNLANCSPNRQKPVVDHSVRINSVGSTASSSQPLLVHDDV
READOUT_KIND: C-kit AVG % Activity at 3.0E−08 (%)

COCCOCCOCCOCCOCCOCCOCCNCc1ccc(C(=O)Nc2ccc(C)c(Nc3nccc(-c4cccnc4)n3)c2)cc1: 95
COCCOCCOCCOCCOCCOCCOCCOCCOCCNCc1ccc(C(=O)Nc2ccc(C)c(Nc3nccc(-c4cccnc4)n3)c2)cc1 [mPEG9-N-Imatinib]: 99
COCCOCCOCCOCCOCCOCCOCCOCCOCCN1CCN(Cc2ccc(C(=O)Nc3ccc(C)c(Nc4nccc(-c5cccnc5)n4)c3)cc2)CC1 [mPEG9-N′-Imatinib]: 92
COCCOCCOCCOCCOCCOCCOCCN1CCN(Cc2ccc(C(=O)Nc3ccc(C)c(Nc4nccc(-c5cccnc5)n4)c3)cc2)CC1 [mPEG7-N′-Imatinib]: 97
COCCOCCOCCOCCOCCNCc1ccc(C(=O)Nc2ccc(C)c(Nc3nccc(-c4cccnc4)n3)c2)cc1 [mPEG5-N-Imatinib]: 91
